Assay: Half life in ICR mouse plasma at 10 mg/kg, iv
Assay type: ADME, organism-based
Set-up: dose 10 mg/kg, route intravenous
EXPERIMENTAL READOUT: half-life (h)
Provide only the numeric value, understood in h.

Query string: half-life for COc1cc(/C=C/c2cccc(/C=C/c3ccc(N(C)C)c(OC)c3)c2)ccc1N(C)C ?
Result string: 7.3

----------
Assay: Tmax in ICR mouse brain at 20 mg/kg, po
Type: ADME, organism-based
Parameters: dose 20 mg/kg, route oral
EXPERIMENTAL READOUT: Tmax (h)
Provide only the numeric value, understood in h.

Query string: Tmax for COc1cc(/C=C/c2cccc(/C=C/c3ccc(N(C)C)c(OC)c3)c2)ccc1N(C)C ?
Result string: 4.7
